B1: AMOTL2 peptide 66-81 (Angiomotin-like protein 2), 16-mer library wild type / TNKS ANK (TNKS 12 ANK repeats, residues 174-649) (parent)
chain 1: LQQATRQEPQGQEHQG
chain 2: TGVPAVSGALRELLEACRNGDVSRVKRLVDAANVNAKDMAGRKSSPLHFAAGFGRKDVVEHLLQMGANVHARDDGGLIPLHNACSFGHAEVVSLLLCQGADPNARDNWNYTPLHEAAIKGKIDVCIVLLQHGADPNIRNTDGKSALDLADPSAKAVLTGEYKKDELLEAARSGNEEKLMALLTPLNVNCHASDGRKSTPLHLAAGYNRVRIVQLLLQHGADVHAKDKGGLVPLHNACSYGHYEVTELLLKHGACVNAMDLWQFTPLHEAASKNRVEVCSLLLSHGADPTLVNCHGKSAVDMAPTPELRERLTYEFKGHSLLQAAREADLAKVKKTLALEIINFKQPQSHETALHCAVASLHPKRKQVTELLLRKGANVNEKNKDFMTPLHVAAERAHNDVMEVLHKHGAKMNALDTLGQTALHRAALAGHLQTCRLLLSYGSDPSIISLQGFTAAQMGNEAVQQILSESTPIRTSD

Variants of: B1
Test: proteomic peptide phage display deep mutational scan (ProP-PD DMS): M13 P8 16-mer library selected against immobilised GST-tagged bait for four days (rounds), NGS of the eluted pools per day and pseudo-replica
Settings: with TNKS ANK (TNKS 12 ANK repeats, residues 174-649); bait immobilised on MaxiSorp plates (10 µg), library pre-cleared on GST, 2 h binding at 4 °C, five washes; one round per day, days 1-4; value from days 2 and 3; keep out of graded; scale: average fractional NGS count over selection days 2 and 3
Readout kind: screen value
Give bare numbers.

Parameters: items (list). Returns: screen value for each item.
1. chain 1 RQQATRQEPQGQEHQG [chain 1 L1R]
2. chain 1 LQQATLQEPQGQEHQG [chain 1 R6L]
3. chain 1 LQQATREEPQGQEHQG [chain 1 Q7E]
4. chain 1 LQQATRQEPQGQPHQG [chain 1 E13P]
5. chain 1 LQQATRQEYQGQEHQG [chain 1 P9Y]
6. chain 1 LQQATRQEPQGVEHQG [chain 1 Q12V]

2.19e-05
0
2.83e-05
3.32e-05
0
6.42e-05

Report screen value for each item below.
1. chain 1 LQQATRQEPQLQEHQG [chain 1 G11L]
2. chain 1 LQEATRQEPQGQEHQG [chain 1 Q3E]
3. chain 1 LQQATRQEPQGQEHKG [chain 1 Q15K]

[0, "9.57e-05", "5.01e-05"]

Need screen value for each of these variants.
1. chain 1 LQKATRQEPQGQEHQG [chain 1 Q3K]
2. chain 1 LQQATRQEPAGQEHQG [chain 1 Q10A]
3. chain 1 LQQAERQEPQGQEHQG [chain 1 T5E]
4. chain 1 LQQATSQEPQGQEHQG [chain 1 R6S]

1. 2.25e-05
2. 2.19e-05
3. 5.19e-05
4. 6.11e-05
